EC50 Human APJ Receptor listing for selected binders.
Molecular target: T1, human APJ receptor (human, UniProt P35414 1-380)
T1 sequence (looked up): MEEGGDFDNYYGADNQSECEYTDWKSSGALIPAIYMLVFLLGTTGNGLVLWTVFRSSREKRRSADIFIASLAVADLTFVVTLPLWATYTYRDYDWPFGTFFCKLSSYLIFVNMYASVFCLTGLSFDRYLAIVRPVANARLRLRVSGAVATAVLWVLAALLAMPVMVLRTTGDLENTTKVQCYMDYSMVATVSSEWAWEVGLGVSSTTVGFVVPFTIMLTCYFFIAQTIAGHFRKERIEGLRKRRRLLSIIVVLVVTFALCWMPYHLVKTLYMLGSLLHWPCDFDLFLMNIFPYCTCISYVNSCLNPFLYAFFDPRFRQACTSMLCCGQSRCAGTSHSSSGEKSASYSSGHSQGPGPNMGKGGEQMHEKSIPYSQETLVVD
Assay: cell-based or functional assay
Starred links: 1 amine or outer side, 2 acyl side, 3 side chain; linkers in the order of their positions; H or OH if unused. Non-standard residues stand in square brackets, D forms with d. Primed or numbered codes have the meaning given here. *: point of attachment. AC4Abu = α-carboxy-4-aminobutyric acid, O=C(C(CCN[*:1])C(=O)[*:3])[*:2]; Oic = O=C(O)[C@@H]1C[C@@H]2CCCC[C@@H]2N1; Phe(4-Cl) = N[C@@H](Cc1ccc(Cl)cc1)C(=O)O; γGlu = O=C(O)[C@H](CCC(=O)[*:2])N[*:1]; Igl = N[C@H](C(=O)O)C1Cc2ccccc2C1; NMeR = CN[C@@H](CCCNC(=N)N)C(=O)O; Palmitoyl = CCCCCCCCCCCCCCCC(=O)*; Tridecanoyl = CCCCCCCCCCCCC(=O)*; hArg = N=C(N)NCCCC[C@H](N)C(=O)O; Cha = N[C@@H](CC1CCCCC1)C(=O)O; NMeL = CN[C@@H](CC(C)C)C(=O)O; αMeL = CC(C)C[C@](C)(N)C(=O)O; AC4Abu″ = not defined here; β3hP = O=C(O)C[C@@H]1CCCN1; Nle = CCCC[C@H](N)C(=O)O; AMEF = not defined here; AEEA = NCCOCCOCC(=O)O; BLeu = β-leucine
Reply with just the number (in nM).

[[record]]
binder = "Tridecanoyl-[γGlu][AEEA][AEEA][BLeu]RP[hArg][BLeu]SHKG[Oic][Nle]P[Phe(4-Cl)]-OH [SEQ ID NO: 395]"
unit_string = "nM"
value_observed = 0.741


Can you share its EC50 Human APJ Receptor? I mean this binder: XXXQRPRLSHKGPXPF ({Sebacicacid}[AC4Abu][Aeea][Aeea]QRP[NMeArg]LSHKGP[Nle]P[4-Cl-F]{COOH}) [SEQ ID NO: 509]
0.179

Record: Palmitoyl-[AC4Abu″][AEEA][AEEA][dQ]RP[NMeR][Cha]SHKG[Oic][Nle]P[AMEF]-OH (reading uncertain) [SEQ ID NO: 606]
0.307

Record: Ac-RQRP[NMeR][NMeL]SHKGP[Nle]P[Phe(4-Cl)]-OH (SMILES CCCC[C@H](NC(=O)[C@@H]1CCCN1C(=O)CNC(=O)[C@H](CCCCN)NC(=O)[C@H](Cc1c[nH]cn1)NC(=O)[C@H](CO)NC(=O)[C@H](CC(C)C)N(C)C(=O)[C@H](CCCNC(=N)N)N(C)C(=O)[C@@H]1CCCN1C(=O)[C@H](CCCNC(=N)N)NC(=O)[C@H](CCC(N)=O)NC(=O)[C@H](CCCNC(=N)N)NC(C)=O)C(=O)N1CCC[C@H]1C(=O)N[C@@H](Cc1ccc(Cl)cc1)C(=O)O) [SEQ ID NO: 67]
0.185

Record: Palmitoyl-[AC4Abu][AEEA][AEEA][dQ]RP[NMeR][αMeL]SH[Igl]G[Oic][Nle][β3hP][Phe(4-Cl)]-OH [SEQ ID NO: 640]
4.03

Record: XXXQRPRLSHKGPXPF ({hexanoyl}[AC4Abu][Aeea][Aeea]Q[NMehArg]P[NMeArg][aMeLeu]SHKGP[Nle]P[4-Cl-F]{COOH}) [SEQ ID NO: 561]
1.21

Record: XXXQRPRLSHKGPXPF ({TDA}[AC4Abu][AC4Abu][Aeea]QRP[NMeArg]LSHKGP[Nle]P[4-Cl-F]{COOH}) [SEQ ID NO: 462]
0.0154

Record: XXXLRPRLSHKGPXPF ({TDA}[AC4Abu][Aeea][Aeea][BhLeu]RP[NMeArg]LSHKGP[Nle]P[4-Cl-F]{COOH}) [SEQ ID NO: 421]
0.0934

Record: KLRKHNXLQRRXMPLHSRVPFP ({H2}KLRKHN[Abu]LQRR[Abu]MPLHSRVPFP{COOH}) [SEQ ID NO: 14]
0.301

Record: Tridecanoyl-[γGlu][AEEA][AEEA][BLeu]RP[NMeR][Cha]SHKG[Oic][Nle]P[Phe(4-Cl)]-OH [SEQ ID NO: 393]
0.769

Record: RLIEDICLPRWGCLWEDDXXQRPRLSHKGPXPF ({Acetyl-NH}RLIEDICLPRWGCLWEDD[Aeea][Aeea]QRP[NMeArg]LSHKGP[Nle]P[4-Cl-F]{COOH}) [SEQ ID NO: 90]
0.14
